target: full-length human RORγt (Homo sapiens); construct: expressed in transfected cells; host or cells: HEK293T, transiently transfected with pCMV-BD-ROR; assay: RORγt (full-length human) Reporter Assay, Conditions A; type: cell-based; settings: read-out: RORγt (FL) Reporter Assay A, % inhibition (* at 2 μM); 2 μM compound concentration (footnote *)
Sequence (P51449 1-497 isoform P51449-2): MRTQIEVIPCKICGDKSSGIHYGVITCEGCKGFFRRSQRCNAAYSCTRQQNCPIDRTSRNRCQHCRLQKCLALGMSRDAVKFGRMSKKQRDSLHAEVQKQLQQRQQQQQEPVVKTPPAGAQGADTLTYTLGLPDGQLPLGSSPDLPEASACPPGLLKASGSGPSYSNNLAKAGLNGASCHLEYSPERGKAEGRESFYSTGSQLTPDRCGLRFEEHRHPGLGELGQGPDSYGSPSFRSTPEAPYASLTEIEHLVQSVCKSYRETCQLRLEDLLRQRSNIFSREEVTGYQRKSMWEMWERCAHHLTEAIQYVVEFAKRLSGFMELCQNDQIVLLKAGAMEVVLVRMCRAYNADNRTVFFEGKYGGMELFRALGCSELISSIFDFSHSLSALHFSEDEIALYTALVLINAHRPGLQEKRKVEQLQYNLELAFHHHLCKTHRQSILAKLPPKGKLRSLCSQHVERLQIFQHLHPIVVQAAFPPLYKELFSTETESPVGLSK
metric.name: inhibition at 2 µM (%)

INSERT INTO measurements (structure_smiles, assay_target, metric_name, readout_units, obs_value) VALUES
  ('CC[C@H](NS(=O)(=O)c1ccc(-c2sc(-c3cccc(CC(C)(C)C(=O)O)n3)nc2C(=O)N2CC(F)(F)C[C@@H]2C)c(C(F)F)c1F)C(F)(F)F', 'full-length human RORγt (Homo sapiens)', 'inhibition at 2 µM', '%', 98),
  ('CC(C)(O)c1nnc(-c2nc(C(=O)N3CCC(F)(F)CC3)c(-c3ccc(CC(O)(C(F)(F)F)C(F)(F)F)c(Cl)c3)s2)o1', 'full-length human RORγt (Homo sapiens)', 'inhibition at 2 µM', '%', 104),
  ('C[C@H]1CCCN1C(=O)c1nc(-c2nnc(C(C)(C)O)o2)sc1-c1ccc(OCC(O)(C(F)(F)F)C(F)(F)F)cc1C(F)(F)F', 'full-length human RORγt (Homo sapiens)', 'inhibition at 2 µM', '%', 96),
  ('CC[C@H](NS(=O)(=O)c1ccc(-c2sc(-c3cccc(CC(C)(C)C(=O)O)n3)nc2C(=O)N2CCC(F)(F)CC2)c(C(F)F)c1F)C(F)(F)F', 'full-length human RORγt (Homo sapiens)', 'inhibition at 2 µM', '%', 99),
  ('CCN(CC)C(=O)c1nc(-c2cccc(C(C)(C)O)n2)sc1-c1ccc(S(=O)(=O)N[C@@H](C)C(F)(F)F)c(Cl)c1Cl', 'full-length human RORγt (Homo sapiens)', 'inhibition at 2 µM', '%', 104),
  ('CCN(CC)C(=O)c1nc(-c2nnc(C(C)(C)O)[nH]2)sc1-c1ccc(C(O)(C(F)(F)F)C(F)(F)F)c(Cl)c1Cl', 'full-length human RORγt (Homo sapiens)', 'inhibition at 2 µM', '%', 99),
  ('CC(C)(O)Cc1nnc(-c2nc(C(=O)N3CCC(F)CC3)c(-c3ccc(C(O)(C(F)(F)F)C(F)(F)F)c(Cl)c3Cl)s2)o1', 'full-length human RORγt (Homo sapiens)', 'inhibition at 2 µM', '%', 106),
  ('C[C@H](NS(=O)(=O)c1ccc(-c2sc(-c3nnc(C(C)(C)O)[nH]3)nc2C(=O)N2CC(F)(F)C[C@@H]2C)c(Cl)c1Cl)C(F)(F)F', 'full-length human RORγt (Homo sapiens)', 'inhibition at 2 µM', '%', 104),
  ('CC[C@H](NS(=O)(=O)c1ccc(-c2sc(-c3nnc(C(C)(C)O)o3)nc2C(=O)N2CCC(F)CC2)c(Cl)c1Cl)C(F)(F)F', 'full-length human RORγt (Homo sapiens)', 'inhibition at 2 µM', '%', 102),
  ('C[C@H]1CCCN1C(=O)c1nc(-c2nnc(C(C)(C)O)n2C)sc1-c1ccc(C(O)(C(F)(F)F)C(F)(F)F)cc1C(F)(F)F', 'full-length human RORγt (Homo sapiens)', 'inhibition at 2 µM', '%', 99);

###

molecular target: human RORγt ligand binding domain (RORγt LBD) (Homo sapiens); construct: His-tag (N); TurboTEV protease cleavage site (ENLYFQG) (N); test: RORγt ThermoFluor assay; settings: estimated from thermal shift concentration response
Sequence (P51449 with tags, fused parts or gaps): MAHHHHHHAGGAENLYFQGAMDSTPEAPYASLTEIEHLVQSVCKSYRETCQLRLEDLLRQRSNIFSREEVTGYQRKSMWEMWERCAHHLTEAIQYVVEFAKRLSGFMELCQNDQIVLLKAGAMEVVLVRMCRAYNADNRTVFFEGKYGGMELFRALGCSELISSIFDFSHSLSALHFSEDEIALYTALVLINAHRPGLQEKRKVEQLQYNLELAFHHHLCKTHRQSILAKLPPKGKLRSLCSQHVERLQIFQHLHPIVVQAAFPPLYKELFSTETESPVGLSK
metric.name: Kd (nM)

Please review the following examples before continuing.
INSERT INTO assay_data (molecule, metric_name, obs_value) VALUES
  ('C[C@H](NS(=O)(=O)c1ccc(-c2sc(-c3nnc(C(C)(C)O)o3)nc2C(=O)N2CCC(F)(F)CC2)c(F)c1C(F)(F)F)C(F)(F)F [Example 25]', 'Kd', 10),
  ('CN(CC(F)(F)F)S(=O)(=O)c1ccc(-c2sc(-c3nnc(C(C)(C)O)o3)nc2C(=O)N2CCC(F)(F)CC2)c(Cl)c1F [Example 6/23]', 'Kd', 6000),
  ('Cc1cc(C(O)(C(F)(F)F)C(F)(F)F)ccc1-c1sc(-c2noc(C(C)(C)O)n2)nc1C(=O)N1CCC[C@@H]1C [Example 32]', 'Kd', 27),
  ('C[C@H](NS(=O)(=O)c1ccc(-c2sc(-c3nnc(C(C)(C)O)o3)nc2C(=O)N2CCCC[C@@H]2C)c(Cl)c1Cl)C(F)(F)F [Example 4/3]', 'Kd', 0.38),
  ('CC[C@H](NS(=O)(=O)c1ccc(-c2sc(-c3nnn[nH]3)nc2C(=O)N2CCCC[C@@H]2C)c(Cl)c1Cl)C(F)(F)F [Example 15]', 'Kd', 0.64);

1: CC[C@H](NS(=O)(=O)c1ccc(-c2sc(-c3cccc(CC(C)(C)C(=O)O)n3)nc2C(=O)N2CCC(F)(F)CC2)c(C(F)F)c1F)C(F)(F)F [Example 19]
2: C[C@H](NS(=O)(=O)c1ccc(-c2sc(-c3nnc(C(C)(C)O)[nH]3)nc2C(=O)N2CCC(F)(F)CC2)c(Cl)c1Cl)C(F)(F)F [Example 9/3]
Rank 1 against 2 by their Kd values and give the higher one. Please indicate the selected item by its label.
2

###

Biological target: full-length human RORγt (Homo sapiens)
Construct: expressed in transfected cells; host or cells: HEK293T, transiently transfected with pCMV-BD-ROR
Experiment: RORγt (full-length human) Reporter Assay, Conditions A
Type: cell-based
Conditions: HEK293T cells, GAL4-DBD-RORγt, luciferase; read-out: RORγt (FL) Reporter Assay A, IC50
Description: After overnight (16 to 20 hours) incubation, media were removed and cells were lysed with 20 μL 1× Passive Lysis Buffer (Promega) for 10-15 minutes. Luminescence was measured using a BMG LUMIstar OPTIMA plate reader, after addition of 75 μL/well firefly luciferase buffer, followed by 75 μL/well Renilla luciferase buffer. […] IC50s were generated by plotting final Renilla normalized data against compound concentration and percent inhibition was calculated against DMSO control.
metric.name: IC50 (nM)

Please review the following examples before continuing.
INSERT INTO measurements (structure_smiles, obs_value) VALUES
  ('CC1(NS(=O)(=O)c2ccc(-c3sc(-c4nnc(C(C)(C)O)o4)nc3C(=O)N3CCC(F)(F)CC3)c(Cl)c2Cl)CC1', 67),
  ('C[C@H](NS(=O)(=O)c1ccc(-c2sc(-c3cc(C(C)(C)O)on3)nc2C(=O)N2CCC(F)(F)CC2)c(Cl)c1Cl)C(F)(F)F', 12),
  ('CC[C@H](NS(=O)(=O)c1ccc(-c2sc(-c3nnc(CC(C)(C)C(=O)O)o3)nc2C(=O)N2CCCC[C@@H]2C)c(Cl)c1Cl)C(F)(F)F', 100);

I: C[C@H](NS(=O)(=O)c1ccc(-c2sc(-c3nnc(C(C)(C)O)o3)nc2C(=O)N2CC(F)(F)C[C@@H]2C)c(C(F)F)c1F)C(F)(F)F
II: CC[C@H](NS(=O)(=O)c1ccc(-c2sc(-c3noc(CC(C)(C)C(=O)O)n3)nc2C(=O)N2CCC(F)(F)CC2)c(OC(F)(F)F)c1)C(F)(F)F
Given the listed items, does I or II have the lesser reported IC50? Please indicate the selected item by its label.
II

###

target: full-length human RORγt (Homo sapiens); construct: expressed in transfected cells; host or cells: HEK293T, transiently transfected with pCMV-BD-ROR; assay: RORγt (full-length human) Reporter Assay, Conditions A; type: cell-based; details: HEK293T cells, GAL4-DBD-RORγt, luciferase; read-out: RORγt (FL) Reporter Assay A, IC50
pIC50: −log10 of the molar value.
metric.name: pIC50

Please review the following examples before continuing.
INSERT INTO results (structure_smiles, obs_value) VALUES
  ('C[C@H](NS(=O)(=O)c1ccc(-c2sc(-c3nnc(C(C)(C)O)o3)nc2C(=O)N2CCC(F)(F)CC2)c2c1CCCO2)C(F)(F)F', 6.72),
  ('CC[C@H](NS(=O)(=O)c1ccc(-c2sc(-c3noc(CC(C)(C)C(=O)O)n3)nc2C(=O)N2CCCC[C@@H]2C)c(Cl)c1Cl)C(F)(F)F', 8.05),
  ('C[C@H](NS(=O)(=O)c1ccc(-c2sc(-c3nnc(C(C)(C)O)[nH]3)nc2C(=O)N2CC(F)(F)C[C@@H]2C)c(Cl)c1Cl)C(F)(F)F', 7.55);

a: C[C@H]1CCCN1C(=O)c1nc(-c2nnc(C(C)(C)O)o2)sc1-c1ccc(C(O)(C(F)(F)F)C(F)(F)F)cc1C(F)(F)F
b: CCN(CC)C(=O)c1nc(-c2nncn2CC(C)(C)O)sc1-c1ccc(C(O)(C(F)(F)F)C(F)(F)F)c(Cl)c1Cl
Given the listed items, does a or b have the lesser reported pIC50? Please indicate the selected item by its label.
b
(b: 7.17, a: 7.42)
